Square brackets hold non-standard residues; d marks the D form. Peptide text beside a SMILES is read from it. * marks the point of attachment. pY = N[C@@H](Cc1ccc(OP(=O)(O)O)cc1)C(=O)O; Propionyl = CCC(=O)*; NHBu = CCCCN*
Measurement Type: pIC50
// scale note: pIC50 = -log10(conc_M); give the bare number

Query string: State, for Growth factor receptor-bound protein 2 (Homo sapiens, UniProt P62993), measured pIC50 of the compound listed here: CCCCNC(=O)[C@@H]1CCCN1C(=O)[C@@H](NC(=O)[C@H](CC(N)=O)NC(=O)[C@@H](NC(=O)[C@H](Cc1ccc(OP(=O)(O)O)cc1)NC(=O)CC)C(C)C)C(C)C (Propionyl-[pY]VNVP-NHBu)
Result string: 5.79

Query string: State, for Growth factor receptor-bound protein 2 (Homo sapiens, UniProt P62993), measured pIC50 of the compound listed here: CC(C)[C@H]1NC(=O)[C@H](Cc2ccc(OP(=O)(O)O)cc2)NC(=O)CNC(=O)[C@@H]2CCCN2C(=O)[C@@H](C(C)C)NC(=O)[C@H](CC(N)=O)NC1=O
Result string: 6.28

Query string: State, for Growth factor receptor-bound protein 2 (Homo sapiens, UniProt P62993), measured pIC50 of the compound listed here: CC(=O)N[C@H]1CCCCNC(=O)[C@H]2CCCN2C(=O)[C@H](C(C)C)NC(=O)[C@@H](CC(N)=O)NC(=O)[C@H](CC2CCCCC2)NC(=O)[C@@H](Cc2ccc(OP(=O)(O)O)cc2)NC1=O
Result string: 5.79

Query string: State, for Growth factor receptor-bound protein 2 (Homo sapiens, UniProt P62993), measured pIC50 of the compound listed here: CC(C)[C@H](NC(=O)[C@H](CC(N)=O)NC(=O)[C@@H](NC(=O)[C@H](Cc1ccc(OP(=O)(O)O)cc1)NC(=O)[C@H](Cc1ccccc1)NC(=O)[C@@H]1CCCN1C(=O)[C@@H](N)CCCCN)C(C)C)C(=O)N[C@@H](CCC(=O)O)C(=O)N[C@@H](Cc1ccccc1)C(=O)O (H-KPF[pY]VNVEF-OH)
Result string: 6.15

Query string: State, for Growth factor receptor-bound protein 2 (Homo sapiens, UniProt P62993), measured pIC50 of the compound listed here: CC(C)[C@H]1NC(=O)[C@H](Cc2ccc(OP(=O)(O)O)cc2)NC(=O)CCCCCCNC(=O)[C@@H]2CCCN2C(=O)[C@@H](C(C)C)NC(=O)[C@H](CC(N)=O)NC1=O
Result string: 6.22

====

Square brackets hold non-standard residues; d marks the D form. Peptide text beside a SMILES is read from it. * marks the point of attachment. pY = N[C@@H](Cc1ccc(OP(=O)(O)O)cc1)C(=O)O; Propionyl = CCC(=O)*; NHBu = CCCCN*
For each record, write down the corresponding IC50.

Query string: State, for Proto-oncogene tyrosine-protein kinase Src (Homo sapiens, UniProt P12931), measured IC50 of the compound listed here: CC(=O)N[C@H]1CCCCNC(=O)[C@H]2CCCN2C(=O)[C@H](C(C)C)NC(=O)[C@@H](CC(N)=O)NC(=O)[C@H](CC2CCCCC2)NC(=O)[C@@H](Cc2ccc(OP(=O)(O)O)cc2)NC1=O
Result string: > 150 µM

Query string: State, for Proto-oncogene tyrosine-protein kinase Src (Homo sapiens, UniProt P12931), measured IC50 of the compound listed here: CC(C)[C@H]1NC(=O)[C@H](Cc2ccc(OP(=O)(O)O)cc2)NC(=O)CNC(=O)[C@H]2CCCN2C(=O)[C@@H](C(C)C)NC(=O)[C@H](CC(N)=O)NC1=O
Result string: > 100 µM

Query string: State, for Proto-oncogene tyrosine-protein kinase Src (Homo sapiens, UniProt P12931), measured IC50 of the compound listed here: CCCCNC(=O)[C@@H]1CCCN1C(=O)[C@@H](NC(=O)[C@H](CC(N)=O)NC(=O)[C@@H](NC(=O)[C@H](Cc1ccc(OP(=O)(O)O)cc1)NC(=O)CC)C(C)C)C(C)C (Propionyl-[pY]VNVP-NHBu)
Result string: > 100 µM

Query string: State, for Proto-oncogene tyrosine-protein kinase Src (Homo sapiens, UniProt P12931), measured IC50 of the compound listed here: CC(C)[C@@H]1NC(=O)[C@H](Cc2ccc(OP(=O)(O)O)cc2)NC(=O)CCCCCCNC(=O)[C@@H]2CCCN2C(=O)[C@H](C(C)C)NC(=O)[C@H](CC(N)=O)NC1=O
Result string: > 100 µM

# credit: ChEMBL document CHEMBL1132170
